Biological target: human recombinant serotonin 5-HT1B receptor (Homo sapiens, UniProt P28222)
Sequence (P28222 whole entry): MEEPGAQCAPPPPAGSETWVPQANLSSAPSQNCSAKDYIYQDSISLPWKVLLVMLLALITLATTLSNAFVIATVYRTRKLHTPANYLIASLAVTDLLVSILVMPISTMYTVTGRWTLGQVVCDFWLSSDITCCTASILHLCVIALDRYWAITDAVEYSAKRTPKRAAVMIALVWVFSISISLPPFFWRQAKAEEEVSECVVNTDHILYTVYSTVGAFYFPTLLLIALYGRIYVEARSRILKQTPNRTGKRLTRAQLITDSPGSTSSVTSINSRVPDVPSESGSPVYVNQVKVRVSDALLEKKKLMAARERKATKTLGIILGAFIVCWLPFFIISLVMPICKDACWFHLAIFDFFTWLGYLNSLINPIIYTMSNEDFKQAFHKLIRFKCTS
Assay: 5-HT1B radioligand binding competition assay ([3H]5-CT, CHO-K1 membranes)
MEASURED_ATTRIBUTE: pIC50
Worth noting: pIC50 values are minus log10 of concentrations stated in mol/L.

// returns reported pIC50 for input `C/C(=C\n1c2c(c3cc(C)ccc31)CN(C)CC2)c1cccnc1`
6.44

====

Target: human recombinant serotonin (5-Hydroxytryptamine) 5-HT6 receptor (Homo sapiens, UniProt P50406)
Construct: expressed in transfected cells; host or cells: human HeLa cells
Sequence (P50406 whole entry): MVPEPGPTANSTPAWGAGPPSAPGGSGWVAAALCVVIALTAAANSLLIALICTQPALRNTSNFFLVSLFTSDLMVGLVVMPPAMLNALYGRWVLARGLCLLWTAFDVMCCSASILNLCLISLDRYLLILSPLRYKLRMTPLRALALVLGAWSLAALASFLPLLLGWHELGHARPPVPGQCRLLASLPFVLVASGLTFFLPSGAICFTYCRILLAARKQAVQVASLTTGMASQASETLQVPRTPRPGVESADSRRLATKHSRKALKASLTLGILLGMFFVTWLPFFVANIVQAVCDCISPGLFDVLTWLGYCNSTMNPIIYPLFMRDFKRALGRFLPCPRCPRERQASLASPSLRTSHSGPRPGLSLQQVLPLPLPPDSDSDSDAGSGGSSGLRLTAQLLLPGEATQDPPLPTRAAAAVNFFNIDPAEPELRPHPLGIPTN
Test: Serotonin 5-HT6 radioligand binding ([3H]LSD)
Conditions: compound at 1 μM; read-out: Inhibition of ligand binding, Serotonin 5-HT6 (percent inhibition of specific binding)
MEASURED_ATTRIBUTE: inhibition at 1 µM (%)
Field: numeric (%). Do not append units.

>>> readout_value("Cc1ccc(C(O)Cn2c3c(c4ccccc42)CN(C)CC3)cc1 (racemic)")
49

If you can, please state the reported inhibition at 1 µM value of `C/C(=C\n1c2c(c3cc(Cl)ccc31)CN(C)CC2)c1ccc(Cl)cc1` .
95

Also `CNC(=O)c1ccc2c(c1)c1c(n2C#Cc2ccc(F)cc2)CCN(C)C1` , if possible.
53

And for COc1ccc(C(C)(O)Cn2c3c(c4cc(C)ccc42)CN(C)CC3)cc1 (stereo not drawn) ?
82
